Measured selectivity ratio values are reported for all entries that follow.
# Test system: Hepatitis C virus
# test-protocol: Selectivity index, ratio of CC50 for human Huh7.5 cells to EC50 for Hepatitis C virus
# Assay type: toxicity, cell-based, Huh-7
# experimental-setup: read-out: Ratio CC50/EC50
value-kind: selectivity ratio

>  <compound>
CC(=O)O[C@@H]1[C@H](OC(C)=O)[C@@H](OC(C)=O)C=C2c3cc4c(cc3C(=O)N[C@H]21)OCO4 [LYCORICIDINE TRIACETATE]

>  <observed>
< 33.8

$$$$
>  <compound>
CCO[C@@H]1[C@H](OCC)[C@@H](OCC)C[C@@H]2c3cc4c(cc3C(=O)N(CC)[C@@H]12)OCO4

>  <observed>
> 6.98

$$$$
>  <compound>
CCO[C@@H]1[C@H](OCC)[C@@H](OCC)C=C2c3cc4c(cc3C(=O)N(CC)[C@H]21)OCO4

>  <observed>
< 3.01

$$$$
>  <compound>
CC(=O)O[C@H]1C=C2c3cc4c(cc3C(=O)N[C@H]2[C@@H]2OC(C)(C)O[C@@H]21)OCO4

>  <observed>
> 4.76

$$$$
